Sourced from ChEMBL document CHEMBL1799933

test: Oral bioavailability in rat at 3 mg/kg; type: ADME, organism-based; conditions: in vivo
measuredAttribute: bioavailability (%)

compoundstructure=Cc1ccnc(C2(C#N)CCN(Cc3cc(C(=O)O)c(=O)n4ccccc34)CC2)c1 unitdescriptor=% recordedmeasurement=24
compoundstructure=N#CC1(c2ccccn2)CCN(Cc2cc(C(=O)O)c(=O)n3ccccc23)CC1 unitdescriptor=% recordedmeasurement=68

----------
Below, each entry is listed with its recorded clearance.
experiment: Clearance in rat at 3 mg/kg, po and 1 mg/kg, iv; format: ADME, organism-based; details: in vivo
measuredAttribute: clearance (mL/min/kg)

compoundstructure=Cc1ccnc(C2(C#N)CCN(Cc3cc(C(=O)O)c(=O)n4ccccc34)CC2)c1 recordedmeasurement=17.7
compoundstructure=N#CC1(c2ccccn2)CCN(Cc2cc(C(=O)O)c(=O)n3ccccc23)CC1 recordedmeasurement=13.5
